Assay protocol: Intrinsic clearance in Beagle dog cryopreserved pooled hepatocytes at 0.5 uM measured up to 120 mins by LC-MS/MS analysis
Assay type: ADME, tissue-based, Canis lupus familiaris, Hepatocyte
Condition notes: 2 h
Metric name: CLH

CNC(=O)c1cc(C(=O)N[C@H]2C[C@@H]2C)cc([C@@H](O)c2ccccc2)n1    0.81 mL/min/g
CNC(=O)c1cc(C(=O)NC2CC2)cc(Cc2ccccc2)n1    < 1.3 mL/min/g
CNC(=O)c1cc(C(=O)N[C@H]2[C@@H]3COC[C@@H]32)cc(Cc2cccc3[nH]ccc23)n1    < 0.65 mL/min/g
CNC(=O)c1cc(C(=O)N[C@H]2C[C@@H]2C)cc(Cc2cccc3[nH]ccc23)n1    < 0.65 mL/min/g
CNC(=O)c1cc(C(=O)N[C@H]2[C@@H]3C[C@@H](O)C[C@@H]32)cc(C(OC)c2ccccc2)n1 (stereo partly specified)    < 0.65 mL/min/g

Shift focus to the following entry.
CLH lookup needed for CNC(=O)c1cc(C(=O)N[C@H]2[C@@H]3COC[C@@H]32)cc(Cc2ccccc2)n1 , thanks.
0.76 mL/min/g

----------
Assay protocol: Permeability of the compound at pH 7.4 by artificial membrane permeability assay
Type: ADME
Condition notes: PAMPA, read-out: permeability
Metric name: Papp (×10⁻⁶ cm/s)

CNC(=O)c1cc(C(=O)N[C@H]2[C@@H]3C[C@@H](O)C[C@@H]32)cc(C(OC)c2ccccc2)n1 (some centres undefined)    5.6
CNC(=O)c1cc(C(=O)NC2CC2)cc([C@H](C)c2ccccc2)n1    49
CNC(=O)c1cc(C(=O)N[C@H]2[C@@H]3COC[C@@H]32)cc(C(OC)c2ccccc2)n1 (some centres undefined)    14.5
CNC(=O)c1cc(C(=O)N[C@H]2CC[C@H](O)CC2)cc(Cc2ccccc2)n1    8.6
CNC(=O)c1cc(C(=O)NC2CCOCC2)cc(Cc2ccccc2)n1    22
CNC(=O)c1cc(C(=O)N[C@H]2[C@@H]3COC[C@@H]32)cc(Cc2cccc3[nH]ccc23)n1    16
CNC(=O)c1cc(C(=O)N(C)C)cc(Cc2ccccc2)n1    33

1. CNC(=O)c1cccc(Cc2ccccc2)n1
2. CNC(=O)c1cc(C(=O)N[C@H]2[C@@H]3COC[C@@H]32)cc(C(O)c2ccccc2)n1 (some centres undefined)
Select the item with the higher value of Papp from the options 1 and 2 listed. Pick one; state its label.
1

----------
Assay protocol: physchem
Condition notes: buffer, pH 7.4
Metric name: chromatographic logD

CNC(=O)c1cc(C(=O)N[C@H]2[C@@H]3C[C@@H](O)C[C@@H]32)cc([C@@H](C)c2ccccc2)n1    3.6

I. CNC(=O)c1cc(C(=O)N[C@H]2C[C@@H]2C)cc(Cc2ccccc2)n1
II. CNC(=O)c1cc(C(=O)N[C@H]2C[C@@H]2C)cc([C@@H](O)c2ccccc2)n1
// which entry reports the smaller chromatographic logD, I or II ? Pick one; state its label.
II

----------
Assay protocol: physchem
Condition notes: buffer, pH 7.4
Metric name: chromatographic logD

Some molecules with recorded chromatographic logD:
CNC(=O)c1cc(C(=O)N[C@H]2[C@@H]3C[C@H](O)C[C@@H]32)cc([C@@H](C)c2ccccc2)n1    4.1
CNC(=O)c1cc(C(=O)NC2CC2)cc(Cc2ccccc2)n1    3.9
CNC(=O)c1cc(C(=O)N[C@H]2[C@@H]3C[C@H](O)C[C@@H]32)cc(Cc2ccccc2)n1    3.5

1. CNC(=O)c1cc(C(=O)N[C@H]2C[C@@H]2C)cc([C@@H](CC#N)c2ccccc2)n1
2. CNC(=O)c1cc(C(=O)N[C@H]2[C@@H]3COC[C@@H]32)cc(C(O)c2ccccc2)n1 (stereo not given in full)
Select the item with the higher value of chromatographic logD from the options 1 and 2 listed. Pick one; state its label.
1
(1: 4, 2: 2.2)

Measured values drawn from ChEMBL document CHEMBL4808200 for this set.
